- System: d-amphetamine lethality in mice
- Test details: block of lethal effects of d-amphetamine in aggregated mice (modified procedure of Burn and Hobbs)
- Type: in vivo
- Condition context: Mus musculus; IP; mice; 4 hrs. pretreatment; read-out: Protective ED50 (95% confidence limits)
Reported ED50 values for the following compounds.
Write the number in mg/kg without appending the unit.

Recorded results for 3 compounds are shown here.
In [3]: df
Out[3]:
                                   compound  reported_endpoint  unit_label  quantitative_result
0  O=C(c1ccc(F)cc1)C1CCN(CCCN2c3ccccc3Sc3ccccc32)CC1               ED50       mg/kg                 0.35
1  O=C(c1ccc(F)cc1)C1CCN(CCCN2c3ccccc3Sc3ccc(C(F)(F)F)cc32)CC1               ED50       mg/kg                  3.5
2  O=C(c1ccc(F)cc1)C1CCN(CCCN2c3ccccc3Sc3ccc(Cl)cc32)CC1               ED50       mg/kg                 0.53

What value of measured ED50 is listed for CC(=O)c1ccc2c(c1)N(CCCN1CCC(C(=O)c3ccc(F)cc3)CC1)c1ccccc1S2 [Example 6, Difumarate Sesquihydrate] ?
0.1
